Structures can show the parent of a compound that is named as a salt.
Quantity: melting point

QUERY: Find the recorded melting point belonging to CC(=O)NCCc1ccc(CN2CCN(c3ccccc3)CC2)cc1 [Example 14] and report it.
RESULT: 117 to 118 °C

QUERY: And for CC(=O)NC(C)c1ccc(CN2CCN(c3ccccn3)CC2)cc1 (stereo not shown) [Example 104] ?
RESULT: 120 to 121 °C

QUERY: And for CCC(NC(C)=O)c1ccc(CN2CCN(c3ccc(F)cc3F)CC2)cc1 (stereo not shown) [Example 55] ?
RESULT: 137 to 138 °C

QUERY: And for O=CNCc1ccc(CN2CCN(c3ccccc3)CC2)cc1 [Example 3] ?
RESULT: 108 to 109 °C

QUERY: And for COc1cc(OC)nc(N2CCN(Cc3ccc(C(C)(C)NC(C)=O)cc3)CC2)n1 [Example 96] ?
RESULT: 199 to 202 °C

QUERY: And for CCOc1cc(OCC)nc(N2CCN(Cc3ccc(CNC(C)=O)cc3)CC2)n1 [Example 108] ?
RESULT: 119 to 120 °C

QUERY: And for CC(=O)NCc1c(C)cc(CN2CCN(c3ccc(F)cc3)CC2)cc1C [Example 18] ?
RESULT: 163 to 164 °C

QUERY: And for CC(=O)NCc1ccc(CN2CCN(c3ccc(F)cc3)CC2)cc1Cl [Example 26] ?
RESULT: 141 to 142 °C

QUERY: And for CC(=O)NCc1ccc(CN2CCN(c3ccc(F)cc3[N+](=O)[O-])CC2)cc1 [Example 37] ?
RESULT: 94.5 to 96 °C

QUERY: And for NCc1ccc(CN2CCN(c3ccccc3)CC2)cc1 [Example 2] ?
RESULT: 68 to 70 °C

QUERY: And for CC(=O)NCCc1ccc(CN2CCN(c3ccc(F)cc3)CC2)cc1 [Example 27] ?
RESULT: 121 to 123 °C

QUERY: And for CC(=O)NCc1ccc(CN2CCN(c3ccc(Cl)cn3)CC2)cc1 [Example 86] ?
RESULT: 155 to 156 °C

QUERY: And for CC(=O)NCc1ccc(C(C)(C)N2CCN(c3ccc(F)cc3)CC2)cc1 (as salt: hydrochloride) (hydrate or solvate) ?
RESULT: 179 to 181 °C

QUERY: And for CC(=O)NCc1ccc(C(C)N2CCN(c3ccc(F)cc3)CC2)cc1 (stereo not shown) [Example 59] ?
RESULT: 128 to 130 °C

QUERY: And for CC(=O)NCc1ccc(CN2CCN(c3nccc(Cl)n3)CC2)cc1 [Example 97] ?
RESULT: 122 to 124 °C

QUERY: And for CC(=O)NCc1ccc(CN2CCN(c3cc(Cl)nc(Cl)n3)CC2)cc1 [Example 89] ?
RESULT: 165 to 166 °C

QUERY: And for CC(=O)NC1(c2ccc(CN3CCN(c4cccc(F)n4)CC3)cc2)CC1 [Example 117] ?
RESULT: 135 to 136 °C

QUERY: And for CC(=O)NC(C)(C)c1ccc(CN2CCN(c3ccccc3)CC2)cc1 [Example 50] ?
RESULT: 110 to 111 °C

QUERY: And for COc1ccc(N2CCN(Cc3ccc(CNC(C)=O)cc3)CC2)cc1 [Example 13] ?
RESULT: 137 to 138 °C

QUERY: And for CC(=O)NCc1ccc(C(C)N2CCN(c3ccccc3)CC2)cc1 (stereo not shown) (as salt: hydrochloride) ?
RESULT: 233 to 235 °C (dec.)

QUERY: And for CC(=O)NC(C)(C)c1ccc(CN2CCN(c3ncccn3)CC2)cc1 [Example 95] ?
RESULT: 137 to 138 °C

QUERY: And for CC(=O)NCc1ccc(CN2CCN(c3ncc(Cl)s3)CC2)cc1 [Example 112] ?
RESULT: 142 to 145 °C (dec.)

QUERY: And for CC(=O)NCc1ccc(CN2CCN(c3nccc(N(C)C)n3)CC2)cc1 [Example 99] ?
RESULT: 152 to 155 °C

QUERY: And for CC(=O)NC1(c2ccc(C(C)N3CCN(c4ncccn4)CC3)cc2)CC1 (stereo not shown) [Example 70] ?
RESULT: 124 to 125 °C

QUERY: And for CC(=O)NC(C)(C)c1ccc(C(C)N2CCN(c3ccccc3)CC2)cc1 (stereo not shown) [Example 62] ?
RESULT: 169 to 171 °C

QUERY: And for CC(=O)NC1(c2ccc(CN3CCN(c4ccc(F)cc4)CC3)cc2)CC1 [Example 65] ?
RESULT: 124 to 126 °C

QUERY: And for CCC(=O)NCc1ccc(CN2CCN(c3ccccc3)CC2)cc1 [Example 4] ?
RESULT: 140 to 141 °C

QUERY: And for CC(=O)NCc1ccc(CN2CCN(c3ccc(Cl)cc3)CC2)cc1 [Example 11] ?
RESULT: 180.5 to 182 °C

QUERY: And for CC(=O)NC(C)(C)c1ccc(CN2CCN(c3ccc(F)cc3)CC2)cc1 [Example 51] ?
RESULT: 104.5 to 106 °C

QUERY: And for CCOc1cc(F)ccc1N1CCN(Cc2ccc(CNC(C)=O)cc2)CC1 [Example 41] ?
RESULT: 108 to 109 °C

QUERY: And for COc1ccccc1N1CCN(C(C)c2ccc(CNC(C)=O)cc2)CC1 (stereo not shown) (as salt: hydrochloride) [Example 19, Dihydrochloride] ?
RESULT: 220 to 223 °C (dec.)

---

For each record, write down the corresponding melting point.
Structures can show the parent of a compound that is named as a salt.

QUERY: Find the recorded melting point belonging to CC(=O)NC1(c2ccc(C(C)N3CCN(c4ccc(F)cc4)CC3)cc2)CC1 (stereo not drawn) and report it.
RESULT: 149 to 150 °C

QUERY: And for CC(=O)NCc1ccc(CN2CCN(c3cc(F)nc(F)n3)CC2)cc1 ?
RESULT: 127 to 128 °C

QUERY: And for CC(=O)NCc1ccc(CN2CCN(c3ccc(O)cc3)CC2)cc1 (as salt: hydrochloride) [Example 36, Dihydrochloride] ?
RESULT: 218 to 220 °C

QUERY: And for CC(=O)NCc1ccc(CN2CCN(c3ccc(F)cc3Br)CC2)cc1 (as salt: hydrochloride) ?
RESULT: 231 to 235 °C

QUERY: And for CC(=O)NC1(c2ccc(CN3CCN(c4ccccc4)CC3)cc2)CC1 ?
RESULT: 129 to 139.5 °C

QUERY: And for CCC(NC(C)=O)c1ccc(CN2CCN(c3ccc(F)cc3)CC2)cc1 (stereo not drawn) ?
RESULT: 113 to 114 °C

QUERY: And for NCc1ccc(CN2CCN(c3ncccn3)CC2)cc1 ?
RESULT: 70 to 72 °C

QUERY: And for CC(=O)NCc1ccc(CN2CCN(c3ccc(F)cc3)CC2)cc1N ?
RESULT: 163 to 164 °C

QUERY: And for CC(=O)NCc1ccc(CN2CCN(c3ccccc3)CC2)cc1[N+](=O)[O-] ?
RESULT: 135 to 136 °C

---

System: IL-10 production
Assay: Effect on IL-10 production in mice (in vivo), LPS-induced
Details: serum IL-10 90 min after LPS 500 μg/kg i.p.; test compound orally 30 min before LPS; ratio relative to test compound non-administration group
Method: Since the TNF-α concentration in serum reaches a peak at 90 min after LPS administration, the TNF-α concentration in the serum at this point was measured using FACTOR TEST mTNF-α (manufactured by Genzyme) and the IL-10 concentration at the same point of time was also measured using Murine IL-10 ELISA Kit (manufactured by Endogen). […]
IL-10 production (%) less than 700% is T; IL-10 production (%) greater than or equal to 700% is F.

QUERY: Is it true that IL-10 production (%) reported for CC(=O)NC(C)c1ccc(CN2CCN(c3ccccc3)CC2)cc1 (stereo not drawn) [Example 58, Hydrate] is less than 700%?
RESULT: T

QUERY: And for CC(=O)NC(C)c1ccc(CN2CCN(c3ccc(F)cc3)CC2)cc1 (stereo not drawn) [Example 48] ?
RESULT: F

QUERY: And for CC(=O)NCc1ccc(CN2CCN(c3ncccn3)CC2)cc1 [Example 72] ?
RESULT: T

QUERY: And for CC(=O)NC(C)(C)c1ccc(CN2CCN(c3ccc(F)cc3)CC2)cc1 [Example 51] ?
RESULT: T

QUERY: And for CC(=O)NCc1ccc(CN2CCN(c3ccccn3)CC2)cc1 [Example 82] ?
RESULT: F

QUERY: And for CC(=O)NCc1ccc(CN2CCN(c3nccs3)CC2)cc1 [Example 81, Hydrate] ?
RESULT: F

Source of measurements: patent US6455528B1
